Assay Remarks: Cytotoxicity against human HuH5.2 cells assessed as reduction in metabolic activity after 72 hrs by MTS assay
Format: toxicity, cell-based, Huh-5-2
Measurement Context: HuH5.2 cells
Let's look at some compounds and their measured CC50 at 72 h.

Here is how some compounds turned out for CC50 at 72 h.
[[record]]
molecular_string = "Cc1c(Cl)sc2ncnc(NNC(=O)c3ccccn3)c12"
result_value = "> 9.38 µM"

[[record]]
molecular_string = "C/C(=N\\Nc1ncnc2sc3c(c12)CCCC3)c1cccc(O)c1"
result_value = "> 443 µM"

[[record]]
molecular_string = "COc1cccc(C2=Nn3c(CN4CCC(C)CC4)nnc3SC2)c1"
result_value = "> 139 µM"


Q: Suppose we examine the compound `O=C(NNc1ncnc2sccc12)c1cc(O)ccc1O` ; what CC50 at 72 h value has been reported?
A: > 165 µM

Q: What CC50 at 72 h value was documented for this compound, `O=C(NNc1ncnc2sc3c(c12)CCCC3)c1cccc(O)c1` ?
A: > 294 µM

Q: Which value of CC50 at 72 h has been reported for `C/C(=N/Nc1ncnc2sc(C)c(C)c12)c1cc(O)ccc1O` in the records?
A: > 305 µM

Q: Requested field: CC50 at 72 h. Item: `CCOc1ccc2sc(NS(=O)(=O)c3ccc(OC)c(OC)c3)nc2c1`
A: > 127 µM

----------
Tested on: Hepatitis C virus
Assay Remarks: Antiviral activity against Hepatitis C virus genotype 1b infected in human HuH5.2 cells after 72 hrs by luciferase reporter gene assay
Format: functional, cell-based, Hepacivirus hominis
Measurement Context: Hepatitis C virus, genotype 1b, Huh-5-2, 72 h
The following compounds are shown together with reported EC90 values.

[[record]]
molecular_string = "COc1cc2nc(CN3CCC(C(N)=O)CC3)[nH]c(=O)c2cc1OC"
result_value = "> 144 µM"


Q: Lab request: please report EC90 under test system Hepatitis C virus for `O=C(NNc1ncnc2sccc12)c1ccccc1O`
A: > 38.8 µM

Q: For Hepatitis C virus, provide EC90 of `C/C(=N\Nc1ncnc2sc3c(c12)CCCC3)c1cc2ccccc2[nH]1` please.
A: > 277 µM

Q: // fetch Hepatitis C virus EC90 for `C/C(=N/Nc1ncnc2sc3c(c12)CCC3)c1nc2ccccc2[nH]1`
A: < 2.24 µM
